Test system: K86415-001-R-J1-PDC complex spheroids, viability
measurement.protocol: Anticancer human tumor K86415-001-R-J1-PDC patient-derived lung adenocarcinoma cell line growth inhibition [RAS]; active = viability on the fitted dose curve at most 10% of control; inactive = the rest
conditions.used: second compound 0.03 µM; first compound 0.316 µM
Please state which outcome applies, choosing from active, inactive

Use the examples below as a reference point.
compound	target.of.assay	cat
C=CC(=O)Nc1cc(Nc2nccc(-c3cn(C)c4ccccc34)n2)c(OC)cc1N(C)CCN(C)C + CCn1c(-c2cc(N3CCN(C)CC3)cnc2C(C)OC)c2c3cc(ccc31)-c1csc(n1)CC(NC(=O)C1CC1C)C(=O)N1CCCC(N1)C(=O)OCC(C)(C)C2	K86415-001-R-J1-PDC complex spheroids, viability	active
CC(C)NCC(C(=O)N1CCN(c2ncnc3c2C(C)CC3O)CC1)c1ccc(Cl)cc1 (centres undefined) + CCn1c(-c2cccnc2C(C)OC)c2c3cc(ccc31)N1CCOC(CC(NC(=O)C(C(C)C)N(C)C(=O)C3(F)CCN(C(=O)C#CC(C)(C)N(C)C)CC3)C(=O)N3CCCC(N3)C(=O)OCC(C)(C)C2)C1	K86415-001-R-J1-PDC complex spheroids, viability	active
CCN1CCN(Cc2ccc(Nc3ncc(F)c(-c4cc(F)c5nc(C)n(C(C)C)c5c4)n3)nc2)CC1 + CCn1c(-c2cccnc2C(C)OC)c2c3cc(ccc31)N1CCOC(CC(NC(=O)C(C(C)C)N(C)C(=O)C3(F)CCN(C(=O)C#CC(C)(C)N(C)C)CC3)C(=O)N3CCCC(N3)C(=O)OCC(C)(C)C2)C1	K86415-001-R-J1-PDC complex spheroids, viability	inactive

Exercise: Hi team, can someone confirm the assay call for Cc1nc(N2CCC3(CC2)COC(C)C3N)c(CO)nc1Sc1ccnc(N)c1Cl (centres undefined) + CCn1c(-c2cc(N3CCN(C)CC3)cnc2C(C)OC)c2c3cc(ccc31)-c1csc(n1)CC(NC(=O)C1CC1C)C(=O)N1CCCC(N1)C(=O)OCC(C)(C)C2 ?
Solution: active

----------
Tested on: K86415-001-R-J1-PDC complex spheroids, viability
measurement.protocol: Anticancer human tumor K86415-001-R-J1-PDC cell line growth inhibition [RAS]; active = viability on the fitted dose curve at most 10% of control; inactive = the rest;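 also: spheroids exposed to agents for seven days before readout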
conditions.used: second compound 0.1 µM; first compound 0.00316 µM
Please state which outcome applies, choosing from active, inactive

Use the examples below as a reference point.
compound	target.of.assay	cat
CCN1CCN(Cc2ccc(Nc3ncc(F)c(-c4cc(F)c5nc(C)n(C(C)C)c5c4)n3)nc2)CC1 + C#Cc1c(F)ccc2cc(O)cc(-c3ncc4c(N5CC6CCC(C5)N6)nc(OCC56CCCN5CC(F)C6)nc4c3F)c12	K86415-001-R-J1-PDC complex spheroids, viability	inactive
C=CC(=O)Nc1cc(Nc2nccc(-c3cn(C)c4ccccc34)n2)c(OC)cc1N(C)CCN(C)C + C=CC(=O)N1CCN(c2nc(OCC3CCCN3C)nc3c(F)c(-c4nc(N)cc(C)c4C(F)(F)F)c(Cl)cc23)C(C)C1	K86415-001-R-J1-PDC complex spheroids, viability	inactive
CCN1CCN(Cc2ccc(Nc3ncc(F)c(-c4cc(F)c5nc(C)n(C(C)C)c5c4)n3)nc2)CC1 + C=CC(=O)N1CCN(c2nc(OCC3CCCN3C)nc3c(F)c(-c4nc(N)cc(C)c4C(F)(F)F)c(Cl)cc23)C(C)C1	K86415-001-R-J1-PDC complex spheroids, viability	inactive
O=C(c1ccc(F)c(F)c1Nc1ccc(I)cc1F)N1CC(O)([C@@H]2CCCCN2)C1 + C=CC(=O)N1CCN(c2nc(OCC3CCCN3C)nc3c(F)c(-c4nc(N)cc(C)c4C(F)(F)F)c(Cl)cc23)C(C)C1	K86415-001-R-J1-PDC complex spheroids, viability	active

Attention now turns to another entry.
Exercise: Hi team, can someone confirm the assay call for C=CC(=O)Nc1cc(Nc2nccc(-c3cn(C)c4ccccc34)n2)c(OC)cc1N(C)CCN(C)C + C#Cc1c(F)ccc2cc(O)cc(-c3ncc4c(N5CC6CCC(C5)N6)nc(OCC56CCCN5CC(F)C6)nc4c3F)c12 ?
Solution: inactive
